Target: L-type calcium channel (Rattus norvegicus, UniProt P22002)
Construct: membrane fragments of rat cardiac muscle; from tissue; host or cells: rat cardiac muscle membranes
Sequence (P22002 whole entry, other chains not shown, the tested form may be a part): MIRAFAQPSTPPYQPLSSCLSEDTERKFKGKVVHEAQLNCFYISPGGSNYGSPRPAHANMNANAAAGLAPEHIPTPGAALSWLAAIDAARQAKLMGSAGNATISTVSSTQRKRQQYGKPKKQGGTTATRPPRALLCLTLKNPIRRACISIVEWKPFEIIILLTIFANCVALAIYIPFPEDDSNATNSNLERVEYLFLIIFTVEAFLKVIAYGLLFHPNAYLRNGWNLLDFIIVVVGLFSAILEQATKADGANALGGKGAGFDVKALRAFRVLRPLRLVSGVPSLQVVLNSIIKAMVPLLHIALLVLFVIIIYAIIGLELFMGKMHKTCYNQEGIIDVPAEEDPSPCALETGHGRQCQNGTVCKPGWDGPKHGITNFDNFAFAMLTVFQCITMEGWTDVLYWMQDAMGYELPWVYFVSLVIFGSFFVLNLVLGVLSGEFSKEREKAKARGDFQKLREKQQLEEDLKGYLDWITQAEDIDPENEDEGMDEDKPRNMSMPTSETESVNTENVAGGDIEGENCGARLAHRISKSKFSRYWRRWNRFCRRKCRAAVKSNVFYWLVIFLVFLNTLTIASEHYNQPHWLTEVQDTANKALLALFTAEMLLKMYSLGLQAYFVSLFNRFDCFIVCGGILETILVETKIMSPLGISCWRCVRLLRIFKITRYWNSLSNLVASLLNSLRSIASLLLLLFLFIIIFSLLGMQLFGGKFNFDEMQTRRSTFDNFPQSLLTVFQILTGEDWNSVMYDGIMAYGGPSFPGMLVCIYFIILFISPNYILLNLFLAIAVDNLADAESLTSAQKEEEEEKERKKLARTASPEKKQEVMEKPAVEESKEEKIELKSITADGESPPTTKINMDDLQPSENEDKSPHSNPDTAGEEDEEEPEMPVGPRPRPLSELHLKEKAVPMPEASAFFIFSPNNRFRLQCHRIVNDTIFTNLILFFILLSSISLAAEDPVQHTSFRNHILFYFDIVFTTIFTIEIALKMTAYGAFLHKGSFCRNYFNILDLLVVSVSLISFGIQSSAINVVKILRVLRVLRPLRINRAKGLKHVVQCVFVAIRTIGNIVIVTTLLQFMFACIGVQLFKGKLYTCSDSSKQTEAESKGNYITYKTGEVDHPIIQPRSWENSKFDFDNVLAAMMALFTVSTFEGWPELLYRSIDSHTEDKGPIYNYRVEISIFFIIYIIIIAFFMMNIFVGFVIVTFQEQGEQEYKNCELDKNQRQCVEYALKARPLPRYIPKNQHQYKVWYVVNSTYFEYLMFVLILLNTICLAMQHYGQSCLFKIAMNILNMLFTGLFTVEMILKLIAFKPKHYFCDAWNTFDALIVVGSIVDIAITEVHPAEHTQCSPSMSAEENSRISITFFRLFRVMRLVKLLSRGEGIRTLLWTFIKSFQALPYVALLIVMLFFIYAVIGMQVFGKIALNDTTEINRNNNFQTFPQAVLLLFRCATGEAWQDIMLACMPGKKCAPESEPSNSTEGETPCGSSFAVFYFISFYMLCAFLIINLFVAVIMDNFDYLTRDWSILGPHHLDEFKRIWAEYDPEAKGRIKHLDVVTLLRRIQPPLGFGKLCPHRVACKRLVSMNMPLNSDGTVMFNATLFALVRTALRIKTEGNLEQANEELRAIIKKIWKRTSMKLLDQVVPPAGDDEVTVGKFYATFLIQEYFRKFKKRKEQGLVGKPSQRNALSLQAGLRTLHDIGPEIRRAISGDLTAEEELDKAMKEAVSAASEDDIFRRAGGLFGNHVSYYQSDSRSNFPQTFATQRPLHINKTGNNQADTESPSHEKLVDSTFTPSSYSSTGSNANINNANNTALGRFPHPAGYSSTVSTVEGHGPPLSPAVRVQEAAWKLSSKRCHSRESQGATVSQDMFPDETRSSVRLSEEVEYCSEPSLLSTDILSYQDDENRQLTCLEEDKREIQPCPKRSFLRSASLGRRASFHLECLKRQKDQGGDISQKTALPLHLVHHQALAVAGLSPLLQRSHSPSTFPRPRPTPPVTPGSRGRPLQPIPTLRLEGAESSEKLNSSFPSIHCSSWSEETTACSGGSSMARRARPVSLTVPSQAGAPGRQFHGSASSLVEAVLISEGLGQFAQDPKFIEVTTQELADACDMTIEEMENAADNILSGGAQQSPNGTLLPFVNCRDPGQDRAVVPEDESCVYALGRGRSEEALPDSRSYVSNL
Sequence (P54290 25-944 partner limits assumed, other chains not shown): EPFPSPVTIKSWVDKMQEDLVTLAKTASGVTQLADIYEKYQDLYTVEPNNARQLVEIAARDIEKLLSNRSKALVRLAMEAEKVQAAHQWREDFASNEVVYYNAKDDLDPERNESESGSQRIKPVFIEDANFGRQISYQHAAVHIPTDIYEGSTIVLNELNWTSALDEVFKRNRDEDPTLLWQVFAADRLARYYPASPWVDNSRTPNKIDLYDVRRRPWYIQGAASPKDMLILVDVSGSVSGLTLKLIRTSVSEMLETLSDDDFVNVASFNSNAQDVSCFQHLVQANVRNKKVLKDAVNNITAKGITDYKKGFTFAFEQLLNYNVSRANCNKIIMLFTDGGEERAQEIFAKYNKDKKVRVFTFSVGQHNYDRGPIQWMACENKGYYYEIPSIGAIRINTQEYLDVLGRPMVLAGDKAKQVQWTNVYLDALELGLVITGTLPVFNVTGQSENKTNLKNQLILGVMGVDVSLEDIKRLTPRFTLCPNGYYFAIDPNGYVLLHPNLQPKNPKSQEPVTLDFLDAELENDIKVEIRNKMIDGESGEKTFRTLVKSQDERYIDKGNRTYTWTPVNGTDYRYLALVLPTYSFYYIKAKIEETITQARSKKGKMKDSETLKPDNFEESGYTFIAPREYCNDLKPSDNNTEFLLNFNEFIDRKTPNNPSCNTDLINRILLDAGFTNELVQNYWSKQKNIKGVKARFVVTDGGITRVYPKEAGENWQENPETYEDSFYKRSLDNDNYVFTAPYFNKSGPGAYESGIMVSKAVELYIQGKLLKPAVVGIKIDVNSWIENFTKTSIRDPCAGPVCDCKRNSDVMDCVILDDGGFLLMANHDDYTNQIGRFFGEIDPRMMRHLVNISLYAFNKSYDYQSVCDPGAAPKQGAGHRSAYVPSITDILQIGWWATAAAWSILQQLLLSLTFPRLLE
Sequence (P54290 945-1091 partner limits assumed, other chains not shown): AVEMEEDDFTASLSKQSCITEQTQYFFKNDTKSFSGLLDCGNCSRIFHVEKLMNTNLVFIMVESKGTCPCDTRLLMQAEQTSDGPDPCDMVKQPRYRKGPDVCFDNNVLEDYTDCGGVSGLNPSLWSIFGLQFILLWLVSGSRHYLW
Assay: Competition binding of [3H]nitrendipine to membrane fragments of rat cardiac muscle
Settings: pKi Ca
Counter-ions that a name gives are not always drawn.
test readout: log10 Ki (log10 of the value in nM)
Log scale reminder: Ki in nM, then log10 taken.

Reference set (5 entries):
CCCC1=C(C(=O)NCC)C(c2ccc([N+](=O)[O-])cc2)C(C(=O)NCCCN2CCC(c3ccccc3)(c3ccccc3)CC2)=C(CCC)N1 (stereo not shown)	3.22
COC(=O)C1=C(C)NC(C)=C(C(=O)NCCCN2CCC(c3ccccc3)(c3ccccc3)CC2)C1c1ccc(C(=O)OC)cc1 (stereo not shown)	3.06
CCC1=C(C(N)=O)C(c2ccc([N+](=O)[O-])cc2)C(C(=O)NCCCN2CCC3(CC2)C(=O)NCN3c2ccccc2)=C(CC)N1 (stereo not shown) [Example 105, hydrochloride hydrate]	3.82
CCC1=C(C(N)=O)C(c2ccc([N+](=O)[O-])cc2)C(C(=O)NCCCN2CCC(c3ccc(OC)cc3)(c3ccc(OC)cc3)CC2)=C(CC)N1 (stereo not shown) [Example 103, hydrochloride]	2.25
CC1=C(C#N)C(c2ccc([N+](=O)[O-])cc2)C(C(=O)NCCCN2CCC(c3ccccc3)(c3ccccc3)CC2)=C(C)N1 (stereo not shown)	3.13

Query COC(=O)C1=C(C)NC(C)=C(C(=O)NCCCN2CCC(c3ccccc3)(c3ccccc3)CC2)C1c1ccc(Br)cc1 (stereo not shown) on L-type calcium channel (Rattus norvegicus, UniProt P22002); log10 Ki returned: 3.86

Query CCC1=C(C(=O)NCCCN2CCC(c3ccccc3)(c3ccccc3)CC2)C(c2ccc(N)cc2)C(C(=O)OC)=C(C)N1 (stereo not shown) on L-type calcium channel (Rattus norvegicus, UniProt P22002); log10 Ki returned: 3.46

Numbers sourced from patent US6608086B2.
